# pest or weed control at 2241.7 g/ha per record follows
System: Monocots
assay-summary: Herbicidal activity, postemergence, monocot weeds (Table II)
Type: in vivo
particulars: post-emergence, 336 h, 2 lb./A., about 2 weeks, read-out: % control (percent of plants killed)
A number alone suffices; assume %.

>>> reported_result("CCC(=O)Nc1cc(Oc2ccc(C(F)(F)F)cc2Cl)ccc1[N+](=O)[O-]")
47
>>> reported_result("CCCN(CCC)c1cc(Oc2ccc(C(F)(F)F)cc2Cl)ccc1[N+](=O)[O-]")
56
>>> reported_result("CC(=O)CCOc1cc(Oc2ccc(C(F)(F)F)cc2Cl)ccc1[N+](=O)[O-]")
68
>>> reported_result("CCSC(=O)Nc1cc(Oc2ccc(C(F)(F)F)cc2Cl)ccc1[N+](=O)[O-]")
53
>>> reported_result("CCN(CCO)c1cc(Oc2ccc(C(F)(F)F)cc2Cl)ccc1[N+](=O)[O-]")
71
>>> reported_result("CN(CCO)c1cc(Oc2ccc(C(F)(F)F)cc2Cl)ccc1[N+](=O)[O-]")
61
>>> reported_result("CS(=O)(=O)CCOc1cc(Oc2ccc(C(F)(F)F)cc2Cl)ccc1[N+](=O)[O-]")
63
>>> reported_result("O=C(CCl)Nc1cc(Oc2ccc(C(F)(F)F)cc2Cl)ccc1[N+](=O)[O-]")
63
>>> reported_result("CC#CCCOc1cc(Oc2ccc(C(F)(F)F)cc2Cl)ccc1[N+](=O)[O-]")
91
>>> reported_result("CC(Oc1cc(Oc2ccc(C(F)(F)F)cc2Cl)ccc1[N+](=O)[O-])C(=O)N(C)C (centres unmarked)")
81

Q. Can you look up the measured pest or weed control at 2241.7 g/ha of "CCN(CC)c1cc(Oc2ccc(C(F)(F)F)cc2Cl)ccc1[N+](=O)[O-]" for me?
A. 90

Q. # get_value(readout='pest or weed control at 2241.7 g/ha', item= "C#CCCOc1cc(Oc2ccc(C(F)(F)F)cc2Cl)ccc1[N+](=O)[O-]" )
A. 97

Q. Reported pest or weed control at 2241.7 g/ha for "C#CCOc1cc(Oc2ccc(C(F)(F)F)cc2Cl)ccc1[N+](=O)[O-]" : what is it?
A. 100

Q. # query: pest or weed control at 2241.7 g/ha of entry O=[N+]([O-])c1ccc(Oc2ccc(C(F)(F)F)cc2Cl)cc1OCC(O)CO (centres unmarked)
A. 61

Q. Returns the measured pest or weed control at 2241.7 g/ha for the input compound. Input: CNC(=O)C(C)Oc1cc(Oc2ccc(C(F)(F)F)cc2Cl)ccc1[N+](=O)[O-] (centres unmarked)
A. 93

Q. Which measured pest or weed control at 2241.7 g/ha value corresponds to "CCOc1cc(Oc2c(Cl)cc(C(F)(F)F)cc2Cl)ccc1[N+](=O)[O-]" ?
A. 100

Q. Request the reported pest or weed control at 2241.7 g/ha associated with "CCSC(=O)N(C(=O)SCC)c1cc(Oc2ccc(C(F)(F)F)cc2Cl)ccc1[N+](=O)[O-]"
A. 0

###

Tested on: Dicots
assay-summary: Herbicidal activity, preemergence, dicot weeds (Table II)
Type: in vivo
particulars: pre-emergence, 336 h, 4 lb./A., about 2 weeks, read-out: % control (percent of plants killed)
Assign class by pest or weed control at 4483.4 g/ha: not lower than 90% means 1; lower than 90% means 0.

>>> class_name("COC(=O)c1cc(Oc2ccc(C(F)(F)F)cc2Cl)ccc1[N+](=O)[O-]")
1
>>> class_name("CCN(C(=O)NC)c1cc(Oc2ccc(C(F)(F)F)cc2Cl)ccc1[N+](=O)[O-]")
0
>>> class_name("O=[N+]([O-])c1ccc(Oc2ccc(C(F)(F)F)cc2Cl)cc1OCCO")
1

Q. Decide: is the reported value of pest or weed control at 4483.4 g/ha for CC(Oc1cc(Oc2ccc(C(F)(F)F)cc2Cl)ccc1[N+](=O)[O-])C(N)=O (centres unmarked) equal to or greater than 90%?
A. 1

Q. # check: pest or weed control at 4483.4 g/ha of CC(=O)C(C)Oc1cc(Oc2ccc(C(F)(F)F)cc2Cl)ccc1[N+](=O)[O-] (centres unmarked) is greater than or equal to 90%
A. 1

Q. pest or weed control at 4483.4 g/ha >= 90% for "CCOc1cc(Oc2c(Cl)cc(C(F)(F)F)cc2Cl)ccc1[N+](=O)[O-]" ?
A. 0

Q. Determine whether measured pest or weed control at 4483.4 g/ha meets or exceeds 90% for "O=C(CCl)Nc1cc(Oc2ccc(C(F)(F)F)cc2Cl)ccc1[N+](=O)[O-]"
A. 0

Q. Reported pest or weed control at 4483.4 g/ha at or above 90%? "C=CCOc1cc(Oc2ccc(C(F)(F)F)cc2Cl)ccc1[N+](=O)[O-]"
A. 1

Q. Answer whether pest or weed control at 4483.4 g/ha of "Nc1cc(Oc2ccc(C(F)(F)F)cc2Cl)ccc1[N+](=O)[O-]" is greater than or equal to 90%.
A. 1

###

System: corn
assay-summary: Crop tolerance, corn
Assay type: in vivo
particulars: postemergence; 50% or less kill of crop at rates giving more than 50% kill of weeds
measure-name: Tolerance to corn

>>> reported_result("COC(=O)c1cc(Oc2ccc(C(F)(F)F)cc2Cl)ccc1[N+](=O)[O-]")
"Tolerance"
>>> reported_result("CCN(CC)c1cc(Oc2ccc(C(F)(F)F)cc2Cl)ccc1[N+](=O)[O-]")
"Tolerance"
>>> reported_result("CCC(=O)Nc1cc(Oc2ccc(C(F)(F)F)cc2Cl)ccc1[N+](=O)[O-]")
"Tolerance"

###

System: Monocots
assay-summary: Herbicidal activity, postemergence, monocot weeds (Table II)
Assay type: in vivo
particulars: post-emergence, 336 h, 10 lb./A., about 2 weeks, read-out: % control (percent of plants killed)
measure-name: pest or weed control at 11208.5 g/ha (%)
Give just the number in %; leave the unit off.

Answered examples (4):
>>> reported_result("CCOc1cc(Oc2ccc(C(F)(F)F)cc2Cl)ccc1[N+](=O)[O-]")
100
>>> reported_result("CCCOc1cc(Oc2ccc(C(F)(F)F)cc2Cl)ccc1[N+](=O)[O-]")
100
>>> reported_result("COc1cc(Oc2ccc(C(F)(F)F)cc2Cl)ccc1[N+](=O)[O-]")
100
>>> reported_result("Cc1cc(Oc2ccc(C(F)(F)F)cc2C#N)ccc1[N+](=O)[O-]")
100

Q. Could you share which pest or weed control at 11208.5 g/ha value was measured for "CCCOc1cc(Oc2ccc(C(F)(F)F)cc2C#N)ccc1[N+](=O)[O-]" ?
A. 85

###

Test system: Monocots
assay-summary: Herbicidal activity, postemergence, monocot weeds (Table II)
Type: in vivo
particulars: post-emergence, 336 h, 2 lb./A., about 2 weeks, read-out: % control (percent of plants killed)
Recorded pest or weed control at 2241.7 g/ha values for a group of compounds are listed next.
Answer with the value and then the unit.

Q. Requested read-out pest or weed control at 2241.7 g/ha, target or system Monocots, entry "O=C(O)COc1cc(Oc2ccc(C(F)(F)F)cc2Cl)ccc1[N+](=O)[O-]"
A. 71%

Q. State its pest or weed control at 2241.7 g/ha on Monocots: CCOC(=O)C(C)Oc1cc(Oc2ccc(C(F)(F)F)cc2Cl)ccc1[N+](=O)[O-] (stereo not drawn)
A. 93%

Q. Can you look up pest or weed control at 2241.7 g/ha on Monocots for "CCOc1cc(Oc2ccc(C(F)(F)F)cc2C#N)ccc1[N+](=O)[O-]" ?
A. 82%

Q. Observed pest or weed control at 2241.7 g/ha on Monocots for "O=[N+]([O-])c1ccc(Oc2ccc(C(F)(F)F)cc2Cl)cc1OCCO" , please.
A. 76%

###

Tested on: Monocots
assay-summary: Herbicidal activity, preemergence, monocot weeds (Table II)
Assay type: in vivo
particulars: pre-emergence, 336 h, 10 lb./A., about 2 weeks, read-out: % control (percent of plants killed)
measure-name: pest or weed control at 11208.5 g/ha (%)
Kindly provide the numeric value in % only, without the unit symbol.

Q. Quick one: pest or weed control at 11208.5 g/ha of CCOc1cc(Oc2ccc(C(F)(F)F)cc2Cl)ccc1[N+](=O)[O-] [Example 3] ?
A. 99

Q. Name the reported pest or weed control at 11208.5 g/ha value associated with the compound COc1cc(Oc2ccc(C(F)(F)F)cc2Cl)ccc1[N+](=O)[O-] [Example 2]
A. 97

Q. # input compound: CCOc1cc(Oc2ccc(C(F)(F)F)cc2)ccc1[N+](=O)[O-] [Example 1] ; wanted: its pest or weed control at 11208.5 g/ha
A. 42

###

Let's look at some compounds and their measured pest or weed control at 2241.7 g/ha.
Tested on: Monocots
assay-summary: Herbicidal activity, postemergence, monocot weeds (Table II)
Format: in vivo
particulars: post-emergence, 336 h, 2 lb./A., about 2 weeks, read-out: % control (percent of plants killed)
Write it as a number; the unit % goes unstated.

Q. # query: pest or weed control at 2241.7 g/ha | item COC(=O)c1cc(Oc2ccc(C(F)(F)F)cc2Cl)ccc1[N+](=O)[O-] [Example 49] | system: Monocots
A. 77
